- target-entity: UniProt O60840
- Sequence (O60840 whole entry): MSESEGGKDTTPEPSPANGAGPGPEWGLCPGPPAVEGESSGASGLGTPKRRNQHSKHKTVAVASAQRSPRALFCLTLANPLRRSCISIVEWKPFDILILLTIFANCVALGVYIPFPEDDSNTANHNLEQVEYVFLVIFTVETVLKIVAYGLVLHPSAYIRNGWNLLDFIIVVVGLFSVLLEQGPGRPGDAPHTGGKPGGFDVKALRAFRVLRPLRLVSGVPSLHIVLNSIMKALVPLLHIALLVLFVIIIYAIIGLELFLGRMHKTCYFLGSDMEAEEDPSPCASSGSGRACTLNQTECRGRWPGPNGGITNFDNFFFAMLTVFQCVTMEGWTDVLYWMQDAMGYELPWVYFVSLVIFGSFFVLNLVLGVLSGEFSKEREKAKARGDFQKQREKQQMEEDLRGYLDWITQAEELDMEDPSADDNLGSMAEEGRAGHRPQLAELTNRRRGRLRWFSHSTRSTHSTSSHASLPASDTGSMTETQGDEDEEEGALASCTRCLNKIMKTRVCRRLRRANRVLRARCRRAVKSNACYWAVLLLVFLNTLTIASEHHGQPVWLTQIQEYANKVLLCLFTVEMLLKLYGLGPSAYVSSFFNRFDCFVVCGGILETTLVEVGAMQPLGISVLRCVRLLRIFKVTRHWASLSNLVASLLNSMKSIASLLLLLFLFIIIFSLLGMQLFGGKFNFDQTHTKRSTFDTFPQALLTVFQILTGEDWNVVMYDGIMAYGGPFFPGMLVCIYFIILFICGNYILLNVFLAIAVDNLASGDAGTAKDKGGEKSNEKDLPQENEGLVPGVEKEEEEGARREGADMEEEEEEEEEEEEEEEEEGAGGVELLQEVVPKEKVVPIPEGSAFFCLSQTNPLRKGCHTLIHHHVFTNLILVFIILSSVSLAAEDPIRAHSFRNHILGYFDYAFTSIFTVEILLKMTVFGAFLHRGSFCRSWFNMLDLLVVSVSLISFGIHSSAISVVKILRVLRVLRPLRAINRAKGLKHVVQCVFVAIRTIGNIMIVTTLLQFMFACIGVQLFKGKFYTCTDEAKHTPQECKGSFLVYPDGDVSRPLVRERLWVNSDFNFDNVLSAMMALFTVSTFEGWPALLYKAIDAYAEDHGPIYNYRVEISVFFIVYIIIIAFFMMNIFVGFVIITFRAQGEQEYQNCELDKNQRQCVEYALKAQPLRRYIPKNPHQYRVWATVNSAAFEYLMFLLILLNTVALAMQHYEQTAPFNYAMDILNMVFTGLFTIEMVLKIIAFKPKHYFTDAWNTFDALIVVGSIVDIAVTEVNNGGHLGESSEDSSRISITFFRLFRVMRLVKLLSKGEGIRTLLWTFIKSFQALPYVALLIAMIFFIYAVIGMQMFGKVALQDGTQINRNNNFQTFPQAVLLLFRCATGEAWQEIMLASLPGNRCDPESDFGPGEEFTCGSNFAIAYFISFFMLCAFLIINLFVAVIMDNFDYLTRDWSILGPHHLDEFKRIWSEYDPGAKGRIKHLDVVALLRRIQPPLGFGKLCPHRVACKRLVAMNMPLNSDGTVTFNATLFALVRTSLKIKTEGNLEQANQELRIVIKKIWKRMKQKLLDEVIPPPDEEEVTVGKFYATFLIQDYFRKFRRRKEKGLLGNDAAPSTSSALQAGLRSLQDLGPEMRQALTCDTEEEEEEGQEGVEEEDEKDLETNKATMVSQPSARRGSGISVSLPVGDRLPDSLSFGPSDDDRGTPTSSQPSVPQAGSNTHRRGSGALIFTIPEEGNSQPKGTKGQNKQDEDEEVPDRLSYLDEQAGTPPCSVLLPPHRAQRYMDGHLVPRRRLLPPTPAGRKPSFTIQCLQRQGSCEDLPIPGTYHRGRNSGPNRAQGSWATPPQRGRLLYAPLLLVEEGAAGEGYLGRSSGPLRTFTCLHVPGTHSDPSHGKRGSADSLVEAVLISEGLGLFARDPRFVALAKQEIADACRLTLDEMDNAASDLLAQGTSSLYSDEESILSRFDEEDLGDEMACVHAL
- Sequence (Q08289 whole entry partner): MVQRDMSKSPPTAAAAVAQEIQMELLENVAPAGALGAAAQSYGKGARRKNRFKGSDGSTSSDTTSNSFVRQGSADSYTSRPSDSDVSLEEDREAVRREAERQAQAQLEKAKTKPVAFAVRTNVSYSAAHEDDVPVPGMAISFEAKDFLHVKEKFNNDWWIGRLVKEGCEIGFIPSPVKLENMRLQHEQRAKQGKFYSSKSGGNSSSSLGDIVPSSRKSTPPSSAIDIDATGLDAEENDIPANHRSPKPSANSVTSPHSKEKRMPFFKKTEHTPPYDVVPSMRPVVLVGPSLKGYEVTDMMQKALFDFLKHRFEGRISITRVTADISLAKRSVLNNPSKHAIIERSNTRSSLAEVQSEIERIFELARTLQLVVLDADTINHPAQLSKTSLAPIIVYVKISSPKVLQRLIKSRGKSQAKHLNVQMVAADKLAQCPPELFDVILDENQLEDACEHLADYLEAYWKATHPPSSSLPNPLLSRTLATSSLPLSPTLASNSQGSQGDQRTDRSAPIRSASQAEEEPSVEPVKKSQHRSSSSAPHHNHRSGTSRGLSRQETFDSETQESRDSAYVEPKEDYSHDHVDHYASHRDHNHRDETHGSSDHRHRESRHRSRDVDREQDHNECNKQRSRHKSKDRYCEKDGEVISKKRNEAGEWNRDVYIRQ
- Sequence (Q7Z3S7 20-991 partner limits assumed): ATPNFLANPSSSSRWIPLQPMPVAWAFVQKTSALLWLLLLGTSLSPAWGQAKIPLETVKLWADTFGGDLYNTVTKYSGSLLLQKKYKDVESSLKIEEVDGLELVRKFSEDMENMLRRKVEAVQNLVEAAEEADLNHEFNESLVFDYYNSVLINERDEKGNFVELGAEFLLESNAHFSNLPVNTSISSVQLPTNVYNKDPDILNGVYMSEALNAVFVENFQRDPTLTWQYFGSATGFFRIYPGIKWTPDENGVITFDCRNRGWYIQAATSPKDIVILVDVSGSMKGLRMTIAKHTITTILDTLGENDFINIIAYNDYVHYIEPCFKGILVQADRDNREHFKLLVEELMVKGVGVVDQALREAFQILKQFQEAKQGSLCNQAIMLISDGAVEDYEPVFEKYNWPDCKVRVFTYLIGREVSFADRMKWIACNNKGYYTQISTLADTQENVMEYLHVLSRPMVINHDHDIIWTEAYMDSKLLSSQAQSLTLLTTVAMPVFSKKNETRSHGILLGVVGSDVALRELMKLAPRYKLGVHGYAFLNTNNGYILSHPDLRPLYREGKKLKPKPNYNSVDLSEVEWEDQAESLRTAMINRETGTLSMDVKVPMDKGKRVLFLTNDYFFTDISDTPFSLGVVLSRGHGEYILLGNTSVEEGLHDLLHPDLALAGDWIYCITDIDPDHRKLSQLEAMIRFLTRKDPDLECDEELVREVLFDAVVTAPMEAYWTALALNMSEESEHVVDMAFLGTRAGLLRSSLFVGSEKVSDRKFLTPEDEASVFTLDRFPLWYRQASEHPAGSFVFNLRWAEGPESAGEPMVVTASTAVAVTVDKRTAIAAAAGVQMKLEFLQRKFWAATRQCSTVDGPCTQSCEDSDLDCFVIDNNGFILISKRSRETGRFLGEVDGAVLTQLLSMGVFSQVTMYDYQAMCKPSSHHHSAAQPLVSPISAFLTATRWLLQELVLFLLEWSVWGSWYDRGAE
- Sequence (Q7Z3S7 992-1137 partner limits assumed): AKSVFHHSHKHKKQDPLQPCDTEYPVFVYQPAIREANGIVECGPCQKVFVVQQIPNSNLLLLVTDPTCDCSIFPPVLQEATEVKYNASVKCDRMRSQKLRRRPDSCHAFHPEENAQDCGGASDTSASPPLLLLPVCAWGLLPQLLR
- test-conditions: CaV1.4 WT; inhibition of ICa, Hill fit
Where a name gives a salt, the structure may show the parent alone.
Quick list: IC50 per entry.
Report the figure in µM without appending any unit label.

Ask | // IC50 lookup, key: CC(C)(C)CCN1C[C@@H]2C(CNC(=O)c3cc(Cl)cc(Cl)c3)[C@@H]2C1 (some centres unmarked) [ML218, ML218 hydrochloride]
Reply | 2.1

Ask | Look at this molecule and give its reported IC50. CC(C)(C)NC(=O)CN1CCC(CNC(=O)c2cc(F)cc(Cl)c2)CC1
Reply | 31.5
